Hi there, I'd appreciate the recorded pKi for every entry that follows.
Molecular target: oleamide hydrolase (Rattus norvegicus, UniProt P97612)
Construct: The enzyme was used as a crude, heterogenous, membrane-containing preparation from rat liver; from tissue; host or cells: rat liver plasma membrane preparation (12-14 rat livers), crude
Sequence (P97612 whole entry): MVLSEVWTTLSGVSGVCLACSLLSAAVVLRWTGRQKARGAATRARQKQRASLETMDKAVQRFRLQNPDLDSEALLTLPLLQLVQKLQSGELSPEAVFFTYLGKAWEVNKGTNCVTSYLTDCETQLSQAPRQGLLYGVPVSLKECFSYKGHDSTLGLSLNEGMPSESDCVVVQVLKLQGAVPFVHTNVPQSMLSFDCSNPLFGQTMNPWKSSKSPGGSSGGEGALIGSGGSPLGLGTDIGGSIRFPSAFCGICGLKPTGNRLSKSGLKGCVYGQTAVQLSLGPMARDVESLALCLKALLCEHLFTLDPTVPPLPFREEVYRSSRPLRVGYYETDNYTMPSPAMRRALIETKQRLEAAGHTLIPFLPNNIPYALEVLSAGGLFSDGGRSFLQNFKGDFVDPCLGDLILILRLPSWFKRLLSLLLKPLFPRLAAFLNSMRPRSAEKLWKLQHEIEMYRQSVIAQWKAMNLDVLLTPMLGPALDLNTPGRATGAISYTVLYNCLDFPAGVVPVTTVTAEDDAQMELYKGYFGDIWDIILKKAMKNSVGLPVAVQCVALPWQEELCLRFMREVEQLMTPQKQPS
Assay: Oleamide hydrolase inhibition, ammonia production measured with ion-selective electrode
Format: biochemical
Conditions: pH 10.0, 100 μM oleamide, Dixon method; read-out: inhibition constant (Ki,app)
Numbers only, as −log10 of the molar value.

# compound, target_entity, measured
measured = [
    ("CCCCCCCCCCCCCCCC(=O)C(O)(O)C(=O)OC(C)(C)C", "oleamide hydrolase (Rattus norvegicus, UniProt P97612)", 6.82),
]

Okay, next one:
Enquiry: Form field - read-out: pKi; system: oleamide hydrolase (Rattus norvegicus, UniProt P97612); submitted item: CCCCCCCC/C=C\CCCCCCC(=O)C(=O)OCC [Compound 8, Ethyl 2-Oxo-9Z-octadecenoate]
Return: 8.85
